Entry source: ChEMBL document CHEMBL3758180

target: Delta-type opioid receptor (Rattus norvegicus, UniProt P33533); experiment: Displacement of [3H][Ile5,6]deltorphin-2 from DOR in Wistar rat brain homogenates by liquid scintillation counting analysis
Sequence (P33533 whole entry): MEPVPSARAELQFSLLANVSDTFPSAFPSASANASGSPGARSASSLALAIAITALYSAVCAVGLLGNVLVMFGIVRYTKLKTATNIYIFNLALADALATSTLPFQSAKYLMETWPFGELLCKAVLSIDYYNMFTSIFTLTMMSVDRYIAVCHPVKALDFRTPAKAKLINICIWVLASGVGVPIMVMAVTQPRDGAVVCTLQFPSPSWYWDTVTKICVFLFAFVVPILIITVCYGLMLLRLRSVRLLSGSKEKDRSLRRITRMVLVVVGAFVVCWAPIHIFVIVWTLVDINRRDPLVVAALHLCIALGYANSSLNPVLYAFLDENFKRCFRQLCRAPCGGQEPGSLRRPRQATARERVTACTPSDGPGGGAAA
pKi: −log10 of the molar value. Positions of bridges follow the written chain, without caps; N, C: chain ends. Non-standard residues stand in square brackets, D forms with d. Residues, ends and D or L forms follow the SMILES beside them. d1Nal = N[C@H](Cc1cccc2ccccc12)C(=O)O; d2Nal = N[C@H](Cc1ccc2ccccc2c1)C(=O)O; Dmt = Cc1cc(O)cc(C)c1C[C@H](N)C(=O)O

Compound	pKi
Cc1cc(O)cc(C)c1C[C@H](N)C(=O)N[C@@H]1CCCCNC(=O)C[C@@H](C(N)=O)NC(=O)[C@H](Cc2ccccc2)NC(=O)[C@@H](Cc2cccc3ccccc23)NC1=O	5.04
NC(=O)[C@@H]1CC(=O)NCCCC[C@@H](NC(=O)[C@@H](N)Cc2ccc(O)cc2)C(=O)N[C@@H](Cc2ccccc2)C(=O)N[C@@H](Cc2ccccc2)C(=O)N1 (H-Y[dK]FFD-NH2; lactam 2-5)	6.77
Cc1cc(O)cc(C)c1C[C@H](N)C(=O)N[C@@H]1CCCCNC(=O)C[C@@H](C(N)=O)NC(=O)[C@@H](Cc2ccc3ccccc3c2)NC(=O)[C@H](Cc2ccccc2)NC1=O (H-[Dmt][dK]F[d2Nal]D-NH2; lactam 2-5)	6.96
Cc1cc(O)cc(C)c1C[C@H](N)C(=O)N[C@@H]1CCCCNC(=O)C[C@@H](C(N)=O)NC(=O)[C@@H](Cc2cccc3ccccc23)NC(=O)[C@H](Cc2ccccc2)NC1=O (H-[Dmt][dK]F[d1Nal]D-NH2; lactam 2-5)	7.29
Cc1cc(O)cc(C)c1C[C@H](N)C(=O)N[C@@H]1CCCCNC(=O)C[C@@H](C(N)=O)NC(=O)[C@H](Cc2ccccc2)NC(=O)[C@@H](Cc2ccc3ccccc3c2)NC1=O	5.37

----------
target: UniProt P41145; assay: Agonist activity at human recombinant KOR expressed in CHO cells assessed as calcium mobilization by Fluo-4 AM based fluorescence analysis
pEC50: −log10 of the molar value. Positions of bridges follow the written chain, without caps; N, C: chain ends. Non-standard residues stand in square brackets, D forms with d. Residues, ends and D or L forms follow the SMILES beside them. d1Nal = N[C@H](Cc1cccc2ccccc12)C(=O)O; d2Nal = N[C@H](Cc1ccc2ccccc2c1)C(=O)O; Dmt = Cc1cc(O)cc(C)c1C[C@H](N)C(=O)O

Molecule	pEC50
Cc1cc(O)cc(C)c1C[C@H](N)C(=O)N[C@@H]1CCCCNC(=O)C[C@@H](C(N)=O)NC(=O)[C@@H](Cc2ccc3ccccc3c2)NC(=O)[C@H](Cc2ccccc2)NC1=O (H-[Dmt][dK]F[d2Nal]D-NH2; lactam 2-5)	6.99
Cc1cc(O)cc(C)c1C[C@H](N)C(=O)N[C@@H]1CCCCNC(=O)C[C@@H](C(N)=O)NC(=O)[C@H](Cc2ccccc2)NC(=O)[C@@H](Cc2ccc3ccccc3c2)NC1=O	5.77
Cc1cc(O)cc(C)c1C[C@H](N)C(=O)N[C@@H]1CCCCNC(=O)C[C@@H](C(N)=O)NC(=O)[C@@H](Cc2cccc3ccccc23)NC(=O)[C@H](Cc2ccccc2)NC1=O (H-[Dmt][dK]F[d1Nal]D-NH2; lactam 2-5)	7.38
Cc1cc(O)cc(C)c1C[C@H](N)C(=O)N[C@@H]1CCCCNC(=O)C[C@@H](C(N)=O)NC(=O)[C@H](Cc2ccccc2)NC(=O)[C@@H](Cc2cccc3ccccc23)NC1=O	5.89
NC(=O)[C@@H]1CC(=O)NCCCC[C@@H](NC(=O)[C@@H](N)Cc2ccc(O)cc2)C(=O)N[C@@H](Cc2ccccc2)C(=O)N[C@@H](Cc2ccccc2)C(=O)N1 (H-Y[dK]FFD-NH2; lactam 2-5)	8.18

----------
molecular target: Kappa-type opioid receptor (Homo sapiens); assay: Agonist activity at human recombinant KOR expressed in CHO cells assessed as calcium mobilization by Fluo-4 AM based fluorescence analysis relative to DynA; assay type: functional, cell-based
Sequence (P41145 whole entry): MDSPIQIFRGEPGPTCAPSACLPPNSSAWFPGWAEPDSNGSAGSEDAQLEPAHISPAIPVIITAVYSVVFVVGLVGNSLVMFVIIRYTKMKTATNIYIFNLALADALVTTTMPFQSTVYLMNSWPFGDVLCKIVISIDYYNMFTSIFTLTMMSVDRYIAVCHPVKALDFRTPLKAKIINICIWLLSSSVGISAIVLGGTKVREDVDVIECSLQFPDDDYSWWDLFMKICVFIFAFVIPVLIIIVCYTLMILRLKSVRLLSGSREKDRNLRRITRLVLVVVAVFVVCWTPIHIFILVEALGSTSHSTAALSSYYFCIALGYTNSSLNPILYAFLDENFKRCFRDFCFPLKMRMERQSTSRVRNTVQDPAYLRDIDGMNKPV
Positions of bridges follow the written chain, without caps; N, C: chain ends. Non-standard residues stand in square brackets, D forms with d. Residues, ends and D or L forms follow the SMILES beside them. d1Nal = N[C@H](Cc1cccc2ccccc12)C(=O)O; d2Nal = N[C@H](Cc1ccc2ccccc2c1)C(=O)O; Dmt = Cc1cc(O)cc(C)c1C[C@H](N)C(=O)O
Answer no (0) if Intrinsic activity is under 0.4, and yes (1) if it is 0.4 or more.

Molecule	Group label
Cc1cc(O)cc(C)c1C[C@H](N)C(=O)N[C@@H]1CCCCNC(=O)C[C@@H](C(N)=O)NC(=O)[C@H](Cc2ccccc2)NC(=O)[C@@H](Cc2cccc3ccccc23)NC1=O	yes (1)
Cc1cc(O)cc(C)c1C[C@H](N)C(=O)N[C@@H]1CCCCNC(=O)C[C@@H](C(N)=O)NC(=O)[C@@H](Cc2cccc3ccccc23)NC(=O)[C@H](Cc2ccccc2)NC1=O (H-[Dmt][dK]F[d1Nal]D-NH2; lactam 2-5)	yes (1)
Cc1cc(O)cc(C)c1C[C@H](N)C(=O)N[C@@H]1CCCCNC(=O)C[C@@H](C(N)=O)NC(=O)[C@@H](Cc2ccc3ccccc3c2)NC(=O)[C@H](Cc2ccccc2)NC1=O (H-[Dmt][dK]F[d2Nal]D-NH2; lactam 2-5)	yes (1)
Cc1cc(O)cc(C)c1C[C@H](N)C(=O)N[C@@H]1CCCCNC(=O)C[C@@H](C(N)=O)NC(=O)[C@H](Cc2ccccc2)NC(=O)[C@@H](Cc2ccc3ccccc3c2)NC1=O	no (0)
NC(=O)[C@@H]1CC(=O)NCCCC[C@@H](NC(=O)[C@@H](N)Cc2ccc(O)cc2)C(=O)N[C@@H](Cc2ccccc2)C(=O)N[C@@H](Cc2ccccc2)C(=O)N1 (H-Y[dK]FFD-NH2; lactam 2-5)	yes (1)

----------
test: Stability of compound in Wistar rat brain homogenate assessed as compound remaining after 90 mins by RP-HPLC analysis; type: ADME; settings: read-out: Stability
Positions of bridges follow the written chain, without caps; N, C: chain ends. Non-standard residues stand in square brackets, D forms with d. Residues, ends and D or L forms follow the SMILES beside them. d1Nal = N[C@H](Cc1cccc2ccccc12)C(=O)O; d2Nal = N[C@H](Cc1ccc2ccccc2c1)C(=O)O; Dmt = Cc1cc(O)cc(C)c1C[C@H](N)C(=O)O
Measured metric: remaining at 1.5 h (%)

Compound	Measured metric	Unit spec	Obs value
Cc1cc(O)cc(C)c1C[C@H](N)C(=O)N[C@@H]1CCCCNC(=O)C[C@@H](C(N)=O)NC(=O)[C@H](Cc2ccccc2)NC(=O)[C@@H](Cc2ccc3ccccc3c2)NC1=O	remaining at 1.5 h	%	85.4
Cc1cc(O)cc(C)c1C[C@H](N)C(=O)N[C@@H]1CCCCNC(=O)C[C@@H](C(N)=O)NC(=O)[C@@H](Cc2cccc3ccccc23)NC(=O)[C@H](Cc2ccccc2)NC1=O (H-[Dmt][dK]F[d1Nal]D-NH2; lactam 2-5)	remaining at 1.5 h	%	96
NC(=O)[C@@H]1CC(=O)NCCCC[C@@H](NC(=O)[C@@H](N)Cc2ccc(O)cc2)C(=O)N[C@@H](Cc2ccccc2)C(=O)N[C@@H](Cc2ccccc2)C(=O)N1 (H-Y[dK]FFD-NH2; lactam 2-5)	remaining at 1.5 h	%	96
Cc1cc(O)cc(C)c1C[C@H](N)C(=O)N[C@@H]1CCCCNC(=O)C[C@@H](C(N)=O)NC(=O)[C@@H](Cc2ccc3ccccc3c2)NC(=O)[C@H](Cc2ccccc2)NC1=O (H-[Dmt][dK]F[d2Nal]D-NH2; lactam 2-5)	remaining at 1.5 h	%	95.6
NC(=O)[C@H](Cc1ccccc1)NC(=O)[C@H](Cc1ccccc1)NC(=O)[C@@H]1CCCN1C(=O)[C@@H](N)Cc1ccc(O)cc1 [ENDOMORPHIN 2]	remaining at 1.5 h	%	0.61
Cc1cc(O)cc(C)c1C[C@H](N)C(=O)N[C@@H]1CCCCNC(=O)C[C@@H](C(N)=O)NC(=O)[C@H](Cc2ccccc2)NC(=O)[C@@H](Cc2cccc3ccccc23)NC1=O	remaining at 1.5 h	%	93.8

----------
molecular target: Mu-type opioid receptor (Rattus norvegicus)
Sequence (P33535 whole entry): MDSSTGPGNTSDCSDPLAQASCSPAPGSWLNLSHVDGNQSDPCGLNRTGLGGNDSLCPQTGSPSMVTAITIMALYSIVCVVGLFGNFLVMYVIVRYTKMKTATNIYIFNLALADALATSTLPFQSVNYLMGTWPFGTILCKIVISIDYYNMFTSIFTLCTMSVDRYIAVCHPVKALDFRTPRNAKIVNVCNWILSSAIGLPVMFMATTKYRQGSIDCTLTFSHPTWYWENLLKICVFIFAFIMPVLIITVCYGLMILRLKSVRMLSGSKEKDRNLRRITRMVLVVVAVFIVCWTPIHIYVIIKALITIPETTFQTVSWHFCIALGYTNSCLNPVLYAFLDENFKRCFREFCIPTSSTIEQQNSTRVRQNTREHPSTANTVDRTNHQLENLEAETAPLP
pKi: −log10 of the molar value. Positions of bridges follow the written chain, without caps; N, C: chain ends. Non-standard residues stand in square brackets, D forms with d. Residues, ends and D or L forms follow the SMILES beside them. d1Nal = N[C@H](Cc1cccc2ccccc12)C(=O)O; d2Nal = N[C@H](Cc1ccc2ccccc2c1)C(=O)O; Dmt = Cc1cc(O)cc(C)c1C[C@H](N)C(=O)O
Use rule met when the recorded pKi is no lower than 9; use rule not met when it is lower.

Compound	Group label
Cc1cc(O)cc(C)c1C[C@H](N)C(=O)N[C@@H]1CCCCNC(=O)C[C@@H](C(N)=O)NC(=O)[C@@H](Cc2ccc3ccccc3c2)NC(=O)[C@H](Cc2ccccc2)NC1=O (H-[Dmt][dK]F[d2Nal]D-NH2; lactam 2-5)	rule met
Cc1cc(O)cc(C)c1C[C@H](N)C(=O)N[C@@H]1CCCCNC(=O)C[C@@H](C(N)=O)NC(=O)[C@H](Cc2ccccc2)NC(=O)[C@@H](Cc2cccc3ccccc23)NC1=O	rule not met
Cc1cc(O)cc(C)c1C[C@H](N)C(=O)N[C@@H]1CCCCNC(=O)C[C@@H](C(N)=O)NC(=O)[C@H](Cc2ccccc2)NC(=O)[C@@H](Cc2ccc3ccccc3c2)NC1=O	rule not met
Cc1cc(O)cc(C)c1C[C@H](N)C(=O)N[C@@H]1CCCCNC(=O)C[C@@H](C(N)=O)NC(=O)[C@@H](Cc2cccc3ccccc23)NC(=O)[C@H](Cc2ccccc2)NC1=O (H-[Dmt][dK]F[d1Nal]D-NH2; lactam 2-5)	rule met
NC(=O)[C@@H]1CC(=O)NCCCC[C@@H](NC(=O)[C@@H](N)Cc2ccc(O)cc2)C(=O)N[C@@H](Cc2ccccc2)C(=O)N[C@@H](Cc2ccccc2)C(=O)N1 (H-Y[dK]FFD-NH2; lactam 2-5)	rule met
